Experiment: in vitro
Settings: dog, MDCK cells, Ratio CC50/EC50
recorded_endpoint: selectivity ratio

CCCCN(CCCC)CCC(=O)O[C@@H]1C[C@@H]2CC[C@@]1(C)C2(C)C :: 6
CCN1CCN(CC(=O)O[C@@H]2C[C@@H]3CC[C@@]2(C)C3(C)C)CC1 :: 23
CCOC(=O)N1CCN(CCC(=O)O[C@@H]2C[C@@H]3CC[C@@]2(C)C3(C)C)CC1 :: 2
CCOC(=O)N1CCN(CC(=O)O[C@@H]2C[C@@H]3CC[C@@]2(C)C3(C)C)CC1 :: 1
CC1(C)[C@H]2CC[C@]1(C)[C@@H](OC(=O)CCN1CCOCC1)C2 :: 65
CN1CCN(CC(=O)O[C@@H]2C[C@@H]3CC[C@@]2(C)C3(C)C)CC1 :: 14
CC1CCN(CC(=O)O[C@@H]2C[C@@H]3CC[C@@]2(C)C3(C)C)CC1 :: 9
NC12CC3CC(CC(C3)C1)C2 :: 4
CC1(C)[C@H]2CC[C@]1(C)[C@H](OC(=O)CN1CCOCC1)C2 :: 82
CC1(C)[C@H]2CC[C@]1(C)[C@H](OC(=O)CCN1CCCC1)C2 :: 9
CC1(C)[C@H]2CC[C@]1(C)[C@H](OC(=O)CCN1CCNCC1)C2 :: 2
CN1CCN(CCC(=O)O[C@@H]2C[C@@H]3CC[C@@]2(C)C3(C)C)CC1 :: 25
CC1(C)[C@H]2CC[C@]1(C)[C@H](OC(=O)CN1CCNCC1)C2 :: 16
CC1(C)[C@H]2CC[C@]1(C)[C@H](OC(=O)CN1CCCCC1)C2 :: 9

----------
Tested on: MDCK
Experiment: Cytotoxicity against MDCK cells after 48 hrs by MTT assay
Assay type: cell-based, Canis lupus familiaris
Details: dog, mdck, 48 h
Measured CC50 accompanies every entry in the list below.
recorded_endpoint: CC50 (µM)

CC1(C)[C@H]2CC[C@]1(C)[C@@H](OC(=O)CCN1CCOCC1)C2 :: 508
CCOC(=O)N1CCN(CCC(=O)O[C@@H]2C[C@@H]3CC[C@@]2(C)C3(C)C)CC1 :: 150
CC1CCN(CCC(=O)O[C@@H]2C[C@@H]3CC[C@@]2(C)C3(C)C)CC1 :: 56.4
CCCCN(CCCC)CC(=O)O[C@@H]1C[C@@H]2CC[C@@]1(C)C2(C)C :: 69.3
CC1(C)[C@H]2CC[C@]1(C)[C@H](OC(=O)CCN1CCNCC1)C2 :: 12.6
CC1(C)[C@H]2CC[C@]1(C)[C@H](OC(=O)CCN1CCCC1)C2 :: 125
CC1(C)[C@H]2CC[C@]1(C)[C@H](OC(=O)CCN1CCOCC1)C2 :: 552

----------
Assay: in vitro
Conditions: dog, MDCK cells, Ratio CC50/EC50
Yes means recorded selectivity ratio is 9 or above; No means it is below 9.

CC1(C)[C@H]2CC[C@]1(C)[C@H](OC(=O)CCN1CCOCC1)C2 :: Yes
CCN1CCN(CCC(=O)O[C@@H]2C[C@@H]3CC[C@@]2(C)C3(C)C)CC1 :: Yes
CC1CCN(CCC(=O)O[C@@H]2C[C@@H]3CC[C@@]2(C)C3(C)C)CC1 :: No
CC(N)C12CC3CC(CC(C3)C1)C2 (stereo not given) [RIMANTADINE] :: No

----------
Assay: Cytotoxicity against MDCK cells after 48 hrs by MTT assay
Assay type: cell-based, Canis lupus familiaris
Conditions: dog, MDCK cells
recorded_endpoint: CC50 at 48 h (µM)

CC1(C)[C@H]2CC[C@]1(C)[C@H](OC(=O)CN1CCNCC1)C2 :: 51.6
CN1CCN(CC(=O)O[C@@H]2C[C@@H]3CC[C@@]2(C)C3(C)C)CC1 :: 103
CCN1CCN(CC(=O)O[C@@H]2C[C@@H]3CC[C@@]2(C)C3(C)C)CC1 :: 100

----------
Recorded CC50 by entry
Tested on: MDCK
Test: Cytotoxicity against MDCK cells after 48 hrs by MTT assay
Assay type: cell-based, Canis lupus familiaris
Settings: dog, mdck, 48 h
recorded_endpoint: CC50 (µM)

CCOC(=O)C1=C[C@@H](OC(CC)CC)[C@H](NC(C)=O)[C@@H](N)C1 [OSELTAMIVIR] :: 160
CC1(C)[C@H]2CC[C@]1(C)[C@H](OC(=O)CCN1CCCCC1)C2 :: 69.6

----------
Test system: MDCK
Test: Cytotoxicity against MDCK cells after 48 hrs by MTT assay
Format: cell-based, Canis lupus familiaris
Details: dog, mdck, 48 h
recorded_endpoint: log10 CC50 (log10 of the value in µM)

CCCCN(CCCC)CCC(=O)O[C@@H]1C[C@@H]2CC[C@@]1(C)C2(C)C :: 1.62
CC1(C)[C@H]2CC[C@]1(C)[C@H](OC(=O)CN1CCCC1)C2 :: 2.48
CC1CCN(CC(=O)O[C@@H]2C[C@@H]3CC[C@@]2(C)C3(C)C)CC1 :: 1.97
CC1(C)[C@H]2CC[C@]1(C)[C@H](OC(=O)CN1CCOCC1)C2 :: 2.76
CN1CCN(CCC(=O)O[C@@H]2C[C@@H]3CC[C@@]2(C)C3(C)C)CC1 :: 1.68
CCN1CCN(CCC(=O)O[C@@H]2C[C@@H]3CC[C@@]2(C)C3(C)C)CC1 :: 2.02
CC1(C)[C@H]2CC[C@]1(C)[C@H](OC(=O)CN1CCCCC1)C2 :: 2.14

----------
Test system: MDCK
Assay: Cytotoxicity against MDCK cells after 48 hrs by MTT assay
Type: cell-based, Canis lupus familiaris
Conditions: dog, mdck, 48 h
Collected CC50 values appear next to each entry.
recorded_endpoint: CC50

CC1(C)[C@H]2CC[C@]1(C)[C@@H](O)C2 (stereo in doubt; 22) :: > 974 µM
CCOC(=O)CN1CCOCC1 :: > 1730 µM
CCOC(=O)N1CCN(CC(=O)O[C@@H]2C[C@@H]3CC[C@@]2(C)C3(C)C)CC1 :: > 852 µM

----------
# CC50 listing for each entry below
System: MDCK
Assay: Cytotoxicity against MDCK cells after 48 hrs by MTT assay
Format: cell-based, Canis lupus familiaris
Conditions: dog, mdck, 48 h
recorded_endpoint: CC50

NC(=O)c1ncn([C@@H]2O[C@H](CO)[C@@H](O)[C@H]2O)n1 [RIBAVIRIN] :: > 2000 µM
CC1(C)[C@H]2CC[C@]1(C)[C@@H](OC(=O)CN1CCOCC1)C2 :: > 534 µM
COC(=O)CN1CCOCC1 :: > 1890 µM
